Assay: Pharmacokinetics (oral bioavailability, IV parameters)
Details: mouse, in vivo; C57BL/6 mice, IV 1 mg/kg, PO 30 mg/kg
REPORTED_PROPERTY: bioavailability

stdin: # bioavailability lookup, item O=C(O)CSc1nc2cc(-c3ccc(-c4ccccc4O)cc3)c(Cl)cc2[nH]1
stdout: < 1%

stdin: # bioavailability lookup, item CP(=O)(O)CSc1nc2nc(-c3ccc(-c4ccccc4O)cc3)c(Cl)cc2[nH]1
stdout: < 1%

stdin: # bioavailability lookup, item O=C(O)CSc1nc2nc(-c3ccc(-c4ccccc4O)cc3)c(Cl)cc2[nH]1
stdout: < 1%

stdin: # bioavailability lookup, item O=P(O)(O)CSc1nc2nc(-c3ccc(-c4ccccc4O)cc3)c(Cl)cc2[nH]1
stdout: < 1%

----------
Assignment: determine reported Papp B→A at 2 h, 2 μM for the given molecules.
Target: BCRP (Homo sapiens (Human), UniProt Q9UNQ0)
Sequence (Q9UNQ0 whole entry): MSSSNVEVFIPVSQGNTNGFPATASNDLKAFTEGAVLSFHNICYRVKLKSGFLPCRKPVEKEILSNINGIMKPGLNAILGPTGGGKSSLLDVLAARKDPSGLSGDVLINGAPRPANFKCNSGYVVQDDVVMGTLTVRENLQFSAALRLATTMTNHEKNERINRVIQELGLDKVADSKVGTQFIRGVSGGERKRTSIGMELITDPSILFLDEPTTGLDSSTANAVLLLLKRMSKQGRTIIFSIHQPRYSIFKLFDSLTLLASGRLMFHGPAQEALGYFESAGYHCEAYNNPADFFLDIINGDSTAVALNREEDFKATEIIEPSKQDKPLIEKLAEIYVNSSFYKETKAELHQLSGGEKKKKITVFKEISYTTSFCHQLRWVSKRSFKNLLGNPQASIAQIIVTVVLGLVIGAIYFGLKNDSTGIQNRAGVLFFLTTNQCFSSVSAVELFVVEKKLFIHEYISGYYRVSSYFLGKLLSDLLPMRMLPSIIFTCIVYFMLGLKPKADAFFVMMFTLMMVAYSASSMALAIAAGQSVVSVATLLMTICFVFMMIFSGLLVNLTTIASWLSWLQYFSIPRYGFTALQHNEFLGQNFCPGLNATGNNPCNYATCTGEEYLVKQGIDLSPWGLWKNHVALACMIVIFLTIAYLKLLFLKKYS
Experiment: in vitro
Assay type: in vitro ADME
Conditions: human, Caco-2, pH 7.4, Mean Papp (10^−6 cm/s) B to A
# do not omit the unit; it follows the number

stdin: # Papp B→A at 2 h, 2 μM lookup, item O=C(O)CSc1nc2cc(-c3ccc(-c4ccccc4O)cc3)c(Cl)cc2[nH]1 [Compound A1]
stdout: 17.1 ×10⁻⁶ cm/s

stdin: # Papp B→A at 2 h, 2 μM lookup, item O=C(O)CSc1nc2nc(-c3ccc(-c4ccccc4O)cc3)c(Cl)cc2[nH]1 [Compound 1]
stdout: 12.7 ×10⁻⁶ cm/s

----------
Target: BCRP (Homo sapiens (Human), UniProt Q9UNQ0)
Assay: in vitro
Type: in vitro ADME
Conditions: human, Caco-2, pH 7.4, Mean Recovery (%) A to B
Assignment: determine reported recovery at 2 h, 2 μM for the given compounds.

stdin: # recovery at 2 h, 2 μM lookup, item O=C(O)CSc1nc2cc(-c3ccc(-c4ccccc4O)cc3)c(Cl)cc2[nH]1 [Compound A1]
stdout: < 65.6%

stdin: # recovery at 2 h, 2 μM lookup, item O=C(O)CSc1nc2nc(-c3ccc(-c4ccccc4O)cc3)c(Cl)cc2[nH]1 [Compound 1]
stdout: < 68.8%

stdin: # recovery at 2 h, 2 μM lookup, item COCCc1ccc(OCC(O)CNC(C)C)cc1 (stereo not drawn) [metoprolol, reference compound]
stdout: 95.4%

----------
Biological target: Recombinant AMPK α1/β1/γ1 complex (Homo sapiens (Human), UniProt Q13131+Q9Y478)
Sequence (Q13131 whole entry): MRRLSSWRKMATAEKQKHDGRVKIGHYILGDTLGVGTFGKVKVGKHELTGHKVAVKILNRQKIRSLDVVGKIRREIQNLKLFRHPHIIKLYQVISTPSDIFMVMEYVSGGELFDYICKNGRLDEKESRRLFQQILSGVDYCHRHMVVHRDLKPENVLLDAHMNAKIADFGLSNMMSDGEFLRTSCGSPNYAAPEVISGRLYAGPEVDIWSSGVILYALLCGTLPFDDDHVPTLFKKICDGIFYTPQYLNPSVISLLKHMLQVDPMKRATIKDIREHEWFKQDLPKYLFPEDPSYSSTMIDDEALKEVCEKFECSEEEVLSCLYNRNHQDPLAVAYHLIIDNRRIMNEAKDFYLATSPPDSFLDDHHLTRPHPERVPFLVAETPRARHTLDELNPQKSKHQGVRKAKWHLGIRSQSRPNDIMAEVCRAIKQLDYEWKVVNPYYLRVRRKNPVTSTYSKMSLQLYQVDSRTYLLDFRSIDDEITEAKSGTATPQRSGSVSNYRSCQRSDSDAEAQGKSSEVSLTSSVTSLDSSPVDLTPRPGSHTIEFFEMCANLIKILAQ
Sequence (Q9Y478 whole entry): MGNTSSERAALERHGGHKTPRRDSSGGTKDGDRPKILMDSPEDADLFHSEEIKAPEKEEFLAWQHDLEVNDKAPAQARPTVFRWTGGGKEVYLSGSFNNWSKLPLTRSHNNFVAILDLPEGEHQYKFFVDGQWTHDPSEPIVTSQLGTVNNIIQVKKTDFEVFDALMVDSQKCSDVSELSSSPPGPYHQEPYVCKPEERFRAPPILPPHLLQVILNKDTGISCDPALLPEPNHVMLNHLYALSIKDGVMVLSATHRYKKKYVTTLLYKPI
Sequence (P54619 whole entry partner): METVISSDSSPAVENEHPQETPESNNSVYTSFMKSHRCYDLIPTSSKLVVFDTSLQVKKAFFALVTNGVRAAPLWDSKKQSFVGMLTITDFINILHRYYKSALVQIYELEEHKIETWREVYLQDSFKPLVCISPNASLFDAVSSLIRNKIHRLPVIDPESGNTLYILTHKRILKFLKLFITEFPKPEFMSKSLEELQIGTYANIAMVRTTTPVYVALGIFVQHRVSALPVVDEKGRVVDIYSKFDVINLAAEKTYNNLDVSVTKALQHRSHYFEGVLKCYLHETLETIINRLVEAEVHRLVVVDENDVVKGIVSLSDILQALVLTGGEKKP
Test: In vitro pAMPK1 kinase activation assay (ADP-Glo, SAMS peptide)
Assay type: biochemical
Settings: at 10 μM, relative to reference compound MK-8722
REPORTED_PROPERTY: activation at 10 µM (%)
Your answer is read as %, so omit the unit and give the number.

stdin: Value wanted: activation at 10 µM (Recombinant AMPK α1/β1/γ1 complex (Homo sapiens (Human), UniProt Q13131+Q9Y478)) of entry CC(C)(C)CCc1ccc(-c2ccc(-c3nc4nc(SCC(=O)O)[nH]c4cc3Cl)cc2)c(O)c1 [Compound 6]
stdout: 18

stdin: Value wanted: activation at 10 µM (Recombinant AMPK α1/β1/γ1 complex (Homo sapiens (Human), UniProt Q13131+Q9Y478)) of entry O=C(O)CSc1nc2cc(-c3ccc(-c4ccccc4O)cc3)c(Cl)cc2[nH]1 [Compound A1]
stdout: 48

stdin: Value wanted: activation at 10 µM (Recombinant AMPK α1/β1/γ1 complex (Homo sapiens (Human), UniProt Q13131+Q9Y478)) of entry O=C(O)CSc1nc2nc(-c3ccc(-c4ccc(-n5cncn5)cc4O)cc3)c(Cl)cc2[nH]1 [Compound 9]
stdout: 51

stdin: Value wanted: activation at 10 µM (Recombinant AMPK α1/β1/γ1 complex (Homo sapiens (Human), UniProt Q13131+Q9Y478)) of entry O=C(O)CSc1nc2nc(-c3ccc(-c4ccc(-n5cncn5)cc4)cc3)c(Cl)cc2[nH]1 [Compound 8]
stdout: 39

stdin: Value wanted: activation at 10 µM (Recombinant AMPK α1/β1/γ1 complex (Homo sapiens (Human), UniProt Q13131+Q9Y478)) of entry CCOP(=O)(O)CSc1nc2nc(-c3ccc(-c4ccccc4O)cc3)c(Cl)cc2[nH]1 [Compound 3]
stdout: 49

stdin: Value wanted: activation at 10 µM (Recombinant AMPK α1/β1/γ1 complex (Homo sapiens (Human), UniProt Q13131+Q9Y478)) of entry O=C(O)CSc1nc2nc(-c3ccc(N4CC[C@H](O)C4)cc3)c(Cl)cc2[nH]1 [Compound 7]
stdout: 42

stdin: Value wanted: activation at 10 µM (Recombinant AMPK α1/β1/γ1 complex (Homo sapiens (Human), UniProt Q13131+Q9Y478)) of entry O=P(O)(O)CSc1nc2nc(-c3ccc(-c4ccccc4O)cc3)c(Cl)cc2[nH]1 [Compound 4]
stdout: 28

stdin: Value wanted: activation at 10 µM (Recombinant AMPK α1/β1/γ1 complex (Homo sapiens (Human), UniProt Q13131+Q9Y478)) of entry CP(=O)(O)CSc1nc2nc(-c3ccc(-c4ccccc4O)cc3)c(Cl)cc2[nH]1 [Compound 2]
stdout: 47

stdin: Value wanted: activation at 10 µM (Recombinant AMPK α1/β1/γ1 complex (Homo sapiens (Human), UniProt Q13131+Q9Y478)) of entry O=C(O)CSc1nc2nc(-c3ccc(-c4ccccc4O)cc3)c(Cl)cc2[nH]1 [Compound 1]
stdout: 35

----------
Molecular target: BCRP (Homo sapiens (Human))
Assay: in vitro
Format: in vitro ADME
Settings: human, Caco-2, pH 7.4, Mean Recovery (%) B to A
REPORTED_PROPERTY: recovery at 2 h, 2 μM (%)
Your answer is read as %, so omit the unit and give the number.

stdin: # recovery at 2 h, 2 μM lookup, item O=C(O)CSc1nc2cc(-c3ccc(-c4ccccc4O)cc3)c(Cl)cc2[nH]1 [Compound A1]
stdout: 77.4

stdin: # recovery at 2 h, 2 μM lookup, item O=C(O)CSc1nc2nc(-c3ccc(-c4ccccc4O)cc3)c(Cl)cc2[nH]1 [Compound 1]
stdout: 79.5

----------
Assignment: determine reported half-life for the given compounds.
Assay: Pharmacokinetics (oral bioavailability, IV parameters)
Details: mouse, in vivo; C57BL/6 mice, IV administration 1 mg/kg
Your answer is read as min, so omit the unit and give the number.

stdin: # half-life lookup, item O=C(O)CSc1nc2cc(-c3ccc(-c4ccccc4O)cc3)c(Cl)cc2[nH]1 [Compound A1]
stdout: 288

stdin: # half-life lookup, item O=C(O)CSc1nc2nc(-c3ccc(-c4ccccc4O)cc3)c(Cl)cc2[nH]1 [Compound 1]
stdout: 114

----------
Biological target: Recombinant AMPK α1/β1/γ1 complex (Homo sapiens (Human), UniProt Q13131+Q9Y478)
Assay: In vitro pAMPK1 kinase activation assay (ADP-Glo, SAMS peptide)
Conditions: AMPK α1/β1/γ1 pre-activated with CAMKK2, 12-point curve
Method: Compound effect on AMPK enzyme activation was determined in a cell-free format with a 12-point concentration curve. The ADP-Glo detection system was used to determine phosphorylation of a SAMS peptide substrate. Recombinant AMPK α1/β1/γ1 complex was pre-activated by phosphorylation with CAMKK2 followed by incubated with compound for 15 minutes prior to the SAMS phosphorylation reaction. […]
pEC50: −log10 of the molar value.
Classify as follows. Reported pEC50 greater than or equal to 7: yes. Reported pEC50 below: no.

stdin: Exam item: decide whether the reported pEC50 for O=C(O)CSc1nc2cc(-c3ccc(-c4ccccc4O)cc3)c(Cl)cc2[nH]1 [Compound A1] is at least 7.
stdout: no

stdin: Exam item: decide whether the reported pEC50 for CCOP(=O)(O)CSc1nc2nc(-c3ccc(-c4ccccc4O)cc3)c(Cl)cc2[nH]1 [Compound 3] is at least 7.
stdout: yes

stdin: Exam item: decide whether the reported pEC50 for CC(C)(C)CCc1ccc(-c2ccc(-c3nc4nc(SCC(=O)O)[nH]c4cc3Cl)cc2)c(O)c1 [Compound 6] is at least 7.
stdout: no

stdin: Exam item: decide whether the reported pEC50 for O=C(O)CSc1nc2nc(-c3ccc(-c4ccccc4O)cc3)c(Cl)cc2[nH]1 [Compound 1] is at least 7.
stdout: yes

stdin: Exam item: decide whether the reported pEC50 for O=C(O)CSc1nc2nc(-c3ccc(N4CC[C@H](O)C4)cc3)c(Cl)cc2[nH]1 [Compound 7] is at least 7.
stdout: yes

----------
Target: Recombinant AMPK α1/β1/γ1 complex (Homo sapiens (Human), UniProt Q13131+Q9Y478)
Assay: In vitro pAMPK1 kinase activation assay (ADP-Glo, SAMS peptide)
Settings: AMPK α1/β1/γ1 pre-activated with CAMKK2, 12-point curve
REPORTED_PROPERTY: EC50 (nM)
Your answer is read as nM, so omit the unit and give the number.

stdin: # EC50 lookup, item O=C(O)CSc1nc2nc(-c3ccc(-c4ccc(-n5cncn5)cc4)cc3)c(Cl)cc2[nH]1
stdout: 20

stdin: # EC50 lookup, item O=C(O)CSc1nc2nc(-c3ccc(-c4ccc(-n5cncn5)cc4O)cc3)c(Cl)cc2[nH]1
stdout: 1.1

stdin: # EC50 lookup, item O=P(O)(O)CSc1nc2nc(-c3ccc(-c4ccccc4O)cc3)c(Cl)cc2[nH]1
stdout: 0.55

stdin: # EC50 lookup, item CP(=O)(O)CSc1nc2nc(-c3ccc(-c4ccccc4O)cc3)c(Cl)cc2[nH]1
stdout: 0.97
